This section presents binders with their documented IC50, reporter cell assay values.
assay system: hGARP-proTGFβ1 presented on cells (human, UniProt P01137 30-390; Q14392 20-662)
Sequence (P01137 30-390 limits assumed, chain 1 of 2): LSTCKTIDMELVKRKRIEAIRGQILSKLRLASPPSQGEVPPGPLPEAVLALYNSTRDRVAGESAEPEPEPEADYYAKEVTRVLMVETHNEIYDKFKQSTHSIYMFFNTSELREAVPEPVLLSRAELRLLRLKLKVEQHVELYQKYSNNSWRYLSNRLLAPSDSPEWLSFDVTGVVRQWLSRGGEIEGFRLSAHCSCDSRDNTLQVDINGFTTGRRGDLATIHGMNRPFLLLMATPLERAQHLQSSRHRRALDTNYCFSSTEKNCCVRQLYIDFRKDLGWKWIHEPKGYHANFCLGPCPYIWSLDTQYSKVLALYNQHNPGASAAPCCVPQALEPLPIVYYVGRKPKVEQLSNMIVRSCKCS
Sequence (Q14392 20-662 limits assumed, chain 2 of 2): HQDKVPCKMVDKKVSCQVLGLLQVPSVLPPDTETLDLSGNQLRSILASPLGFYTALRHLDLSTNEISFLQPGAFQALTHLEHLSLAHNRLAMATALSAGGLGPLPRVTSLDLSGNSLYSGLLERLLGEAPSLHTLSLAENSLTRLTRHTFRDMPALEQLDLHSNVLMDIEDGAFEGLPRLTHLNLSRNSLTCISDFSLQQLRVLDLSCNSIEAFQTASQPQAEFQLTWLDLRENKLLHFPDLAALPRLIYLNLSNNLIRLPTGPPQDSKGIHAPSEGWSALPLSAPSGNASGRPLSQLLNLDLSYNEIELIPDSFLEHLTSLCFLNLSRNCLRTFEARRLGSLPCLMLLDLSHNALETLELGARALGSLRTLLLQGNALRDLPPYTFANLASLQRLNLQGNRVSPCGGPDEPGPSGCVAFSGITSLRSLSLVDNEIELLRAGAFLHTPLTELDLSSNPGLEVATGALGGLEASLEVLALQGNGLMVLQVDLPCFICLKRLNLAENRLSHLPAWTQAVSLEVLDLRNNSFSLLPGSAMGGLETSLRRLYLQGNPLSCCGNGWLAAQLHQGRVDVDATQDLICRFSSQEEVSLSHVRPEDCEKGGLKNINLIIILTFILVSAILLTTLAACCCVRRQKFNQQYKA
measurement protocol: cell-based or functional assay
I only need the number, in nM, no unit after it.

binder | obs value
Ab21 (antibody, V domains shown) VH: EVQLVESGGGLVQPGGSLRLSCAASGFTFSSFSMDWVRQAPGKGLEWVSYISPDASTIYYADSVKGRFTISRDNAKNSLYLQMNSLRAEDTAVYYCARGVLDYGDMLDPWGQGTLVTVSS VL: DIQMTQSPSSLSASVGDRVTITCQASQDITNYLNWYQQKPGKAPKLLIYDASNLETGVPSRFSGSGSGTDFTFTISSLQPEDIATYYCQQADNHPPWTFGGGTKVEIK | 0.401
Ab5 (antibody, V domains shown) VH: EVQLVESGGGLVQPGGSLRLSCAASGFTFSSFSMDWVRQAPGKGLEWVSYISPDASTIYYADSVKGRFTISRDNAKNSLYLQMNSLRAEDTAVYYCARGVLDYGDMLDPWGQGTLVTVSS VL: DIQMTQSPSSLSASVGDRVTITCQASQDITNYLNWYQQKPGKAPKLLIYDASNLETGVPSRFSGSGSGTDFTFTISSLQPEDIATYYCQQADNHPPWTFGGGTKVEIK | 0.14
Ab23 (antibody, V domains shown) VH: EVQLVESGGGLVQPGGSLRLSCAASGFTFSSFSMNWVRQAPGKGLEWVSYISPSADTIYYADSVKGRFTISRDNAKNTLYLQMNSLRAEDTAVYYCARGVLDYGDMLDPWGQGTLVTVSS VL: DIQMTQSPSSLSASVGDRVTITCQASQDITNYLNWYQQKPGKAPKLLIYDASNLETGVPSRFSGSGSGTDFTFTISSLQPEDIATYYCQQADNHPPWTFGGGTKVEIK | 0.264
Ab11 (antibody, IgG4, V domains shown) VH: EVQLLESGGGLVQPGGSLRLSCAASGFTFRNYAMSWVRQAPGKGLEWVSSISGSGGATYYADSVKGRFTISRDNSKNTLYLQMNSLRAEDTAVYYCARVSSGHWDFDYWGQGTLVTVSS VL: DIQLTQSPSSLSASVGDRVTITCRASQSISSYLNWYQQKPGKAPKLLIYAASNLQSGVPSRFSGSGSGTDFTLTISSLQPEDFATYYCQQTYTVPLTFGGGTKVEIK | 0.79

Just so you know, measured IC50, reporter cell assay for Ab12 (antibody, IgG4, V domains shown) VH: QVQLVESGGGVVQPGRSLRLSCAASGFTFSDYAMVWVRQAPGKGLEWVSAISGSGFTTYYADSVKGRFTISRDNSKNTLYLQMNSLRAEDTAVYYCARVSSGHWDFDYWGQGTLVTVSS VL: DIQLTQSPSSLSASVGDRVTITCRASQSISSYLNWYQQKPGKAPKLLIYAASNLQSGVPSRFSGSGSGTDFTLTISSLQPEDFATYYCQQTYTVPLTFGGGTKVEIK came out at 1.08
